experimental_target: human GABA A receptor α5β3γ2 (Homo sapiens (Human), UniProt P18507+P31644)
run_description: [3H]flumazenil competition binding assay, human GABA A α5β3γ2 receptors expressed in HEK293 cells
test_parameters: human receptor; displacement of [3H]flumazenil (0.5 nM); means of two determinations; read-out: hKi GABAAa5
Please note: Ki exactly at 10 nM is no (0). Only values below 10 nM get yes (1).

Some entries whose results are on file:
Cc1onc(-c2ccncc2)c1COc1ccc(C(=O)N2CCOCC2)cn1
no (0)
Cc1onc(-c2ccccc2)c1COc1ccc(C(=O)NC2CCCN(CC(=O)NC3CC3)C2)cn1 (centres unmarked)
no (0)
Cc1onc(-c2ccccc2)c1COc1ccc(C(=O)N2CCC(O)C2)cn1 (centres unmarked)
no (0)
Cc1onc(-c2ccccc2)c1COc1ccc(C(=O)NCCCCO)cn1
yes (1)
Cc1onc(-c2ccccc2)c1CNc1ccc(C(=O)NC2CCOCC2)cn1
yes (1)

Is the reported Ki for Cc1onc(-c2ccccc2)c1COc1ccc([N+](=O)[O-])cn1 strictly below 10 nM? no (0)

Given the entry Cc1onc(-c2ccccc2)c1COc1ccc(C(=O)N[C@@H]2CCC[C@@H]2O)cn1 (single isomer, unassigned) , would its reported Ki be below 10 nM? yes (1)
